# assay method text: Acute toxicity in rats (Experiment 3)
# Parameters: species or system Rat (JcL:Wistar)
# experimental parameters: rat, in vivo, po, female
test readout: LD50 (mg/kg)
Write the value in mg/kg as a bare number.

(Q) Reported LD50, molecule CCCCn1c(=O)n(CCC)c(=O)c2c(NC)n(C(=O)OC)nc21 [Compound (A)] : ____
(A) 2380

###

# assay method text: Acute toxicity in rats (Experiment 3)
# Design: species or system Rat (JcL:Wistar)
# experimental parameters: rat, in vivo, po, male
test readout: LD50 (mg/kg)
# value in mg/kg; strip the unit string

(Q) Requested read-out: LD50. Entry: CCCCn1c(=O)n(CCC)c(=O)c2c(NC)n(C(=O)OC)nc21
(A) 2730
